measurement.target: T1, MUC16-nub ectodomain antigen (human MUC16 membrane proximal domain P13810-P14451 having a myc-myc-his tag) (human)
T1 construct: also called MUC16 ectodomain
T1 chain: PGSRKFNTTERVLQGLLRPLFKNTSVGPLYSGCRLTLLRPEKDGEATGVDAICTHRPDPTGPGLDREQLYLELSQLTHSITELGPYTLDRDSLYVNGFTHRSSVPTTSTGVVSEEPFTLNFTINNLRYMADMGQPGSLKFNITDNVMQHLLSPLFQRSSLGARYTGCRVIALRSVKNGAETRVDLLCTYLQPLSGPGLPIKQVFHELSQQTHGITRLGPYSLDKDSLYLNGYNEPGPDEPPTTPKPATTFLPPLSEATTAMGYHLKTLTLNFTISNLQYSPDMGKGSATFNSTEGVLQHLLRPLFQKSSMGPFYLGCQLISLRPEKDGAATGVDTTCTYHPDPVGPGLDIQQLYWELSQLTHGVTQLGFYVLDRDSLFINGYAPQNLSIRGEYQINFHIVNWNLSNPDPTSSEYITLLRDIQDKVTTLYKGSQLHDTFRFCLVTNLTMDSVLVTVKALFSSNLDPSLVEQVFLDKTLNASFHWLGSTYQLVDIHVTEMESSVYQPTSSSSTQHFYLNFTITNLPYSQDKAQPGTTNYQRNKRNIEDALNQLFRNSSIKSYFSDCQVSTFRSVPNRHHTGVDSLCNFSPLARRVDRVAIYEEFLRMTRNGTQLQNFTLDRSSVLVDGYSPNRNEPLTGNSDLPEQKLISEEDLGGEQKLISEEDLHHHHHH
experiment.description: Binder Kd of Table 3; method and antigen not described
property.label: Kd

Worked examples follow.
INSERT INTO results (binder, property_label, val) VALUES
  ('Anti-MUC16 8755 (antibody, V domains shown, also called BBz) and pBB4005 (8755 L-H) VH: EVQLVESGGGLVQPGRSLRLSCAASGFTFNDYAMHWVRQSPGKGLEWVSGIDWNGGSIDYADSVKGRFTISRDTAKNSLYLQMNSLKVEDTALYYCAKDIGHWNYIGGMDVWGQGTTVTVSS VL: DIQMTQSPSSLSASVGDRVTITCRASQSINIYLNWYQQKPGKAPKFLIYAASSLQTGVPSRFSGSGSGTDFTLTISSLEPEDFATYYCQHSYSTPPITFGQGTRLEIK', 'Kd', '124 pM'),
  ('Anti-MUC16 8810 (antibody, V domains shown, also called BBz) and pBB4017 (8810 L-H) VH: EVQLVESGGALVQPGGSLRLSCAASGFTFSSYAMHWVRQAPGKGLEFVSTISYNGGTTYYADSVKGRFTVSRDNSKNTVFLRMGSLRTEDMAVYYCARAAAPWGQGTLVTVSS VL: EIVLTQSPDTLSLSPGERATLSCRASQSVSNRYLAWYQQKPGQAPRLLIYGASSRATGIPDRFSGSGSGTDFTLTISRLEPEDFAVYYCHQYGSSPWTFGQGTKVEIK', 'Kd', '1120 pM'),
  ('Anti-MUC16 8794 (antibody, V domains shown, also called BBz) and pBB4009 (8794 L-H) VH: QVQLVESGGGLVKPGGSLRLSCAASGFTFRDYSMSWIRQAPGKGLEWVSYVTFFNSAIYYADSVKGRFTISRDNAKNSLYLQMNSLRAEDTAVYYCAREREPIVGGFDYWGQGTLVTVSS VL: DIQMTQSPSSLSASVGDRVTITCRASQSINSYLNWYQQKPGKAPKLLIYAASSLQGGVPSRFSGGGSGTDFTLTITSLQPEDFATFYCQQSYSSPPITFGQGTRLEIK', 'Kd', '554 pM');

## Input What value of Kd has been recorded for this entry: Anti-MUC16 8799 (antibody, V domains shown, also called BBz) and pBB4011 (8799 L-H) VH: EVQLVESGGGLEQPGRSLRLSCTASGFAFGDHTMSWVRQAPGKGLEWVGFIRSRAYGGTTEYAASVKGRFTISRDDSKSIAYLQMDSLKTEDTAVYYCTSGGYDSSLHYYYYYHGMDVWGRGTTVTVSS VL: EIVLTQSPGTLSLSPGERATLSCRASQSITSSYLAWYQQRPGQAPRLLIYGASSRATGIPDRFSGSGSGTDFTLTISRLEPEDFAVYYCQQYGSSPWTFGQGTKVEIK
## Output 826 pM

## Input What value of Kd has been recorded for this entry: Anti-MUC16 8808 (antibody, V domains shown, also called BBz) and pBB4015 (8808 L-H) VH: QVQLVESGGGVVQPGRSLRLSCVASGFTFSNYGIHWVRQAPGKGLEWVAVISDDGSFKFYADSVKGRFTISRDNSKNTLYLQMNSLRVEDSAVYHCAKWQHNWNDGGFDYWGQGTLVTVSS VL: EIVLTQSPDTLSLSPGERATLSCRASQSLSSNYLAWYRQKPGQAPRLLIYGISSRATGIPDRFSGSGSGTDFTLTISRLEPEDFAVYYCQQYGSSPWTFGQGTKVEIK
## Output 277 pM
